- method summary: P. aeruginosa biofilm formation inhibitors, primary screen, strain PAO1, LB-PBS medium, absorbance 600 nm (AID 1176); further: test concentration not given here
- details: P. aeruginosa PAO1 growth/biofilm, A600, 12 h; higher = more signal
observed property: z-score
// return just the number, without any unit appended

As a guide, the following entries are already answered.
>>> print(df.to_string())
                                   compound  observed_property  assay_result
0  O=C1O[C@H](c2ccccc2)[C@H](c2ccccc2)N2[C@H]1[C@@H](C(=O)N1CCCCCCC1)[C@]1(C(=O)Nc3ccc(C#CCCO)cc31)[C@H]2c1ccccc1OCCO            z-score          1.15
1  CCOC(=O)C[C@H]1[C@H](OC(=O)c2ccc(C(=O)c3ccccc3)cc2)[C@@H](NC(=O)c2ccc3ccccc3n2)c2cc(OCCCO)ccc2N1C(=O)c1ccccc1            z-score        0.0186

Okay, next one:
Measured z-score of NC(=O)N1C(=O)C2C(C1=O)C1C=C(c3ccc(CO)cc3)C2C(c2cccs2)N1Cc1cccc(OC(F)(F)F)c1 (stereo not drawn) : -0.79

----------
- method summary: osmotic lysis modulators in infected erythrocytes, primary screen, PSAC antagonist project, cell-based, P. falciparum Indochina, OD700, 3 h (AID 1156)
- details: higher = more signal, called active from +8 up or from −8 down
observed property: z-score
I'd appreciate a reply containing only the number, no unit.

Recorded z-score, per entry:
compound	z-score
O=C1NC(=O)C2C1C=CC(C(O)c1cccs1)N2Nc1ccc(Cl)cc1Cl (centres undefined)	-0.0207
CCC[C@@H]1C[C@@]1(CCC)[C@@H](NC(=O)c1ccccc1)c1cccc(Cl)c1	0.277
C=CCOC(=O)[C@@H]1[C@H]2C(=O)O[C@H](c3ccccc3)[C@H](c3ccccc3)N2[C@H](c2ccc(OCCOC(=O)[C@@H]3C[C@@H]4C(=O)NCC(=O)N4[C@@H]3c3ccc(O)cc3)cc2)[C@@]12C(=O)Nc1ccc(I)cc12	1.58

Please fill in: z-score reported for COc1ccc([Si](C)(C)[C@@H]2[C@@H](CCO)O[C@]3(C(=O)N(Cc4ccc(N(C=O)c5ccccc5)cc4)c4ccccc43)[C@H]2C)cc1 = 0.287

----------
- method summary: MM1S cell viability effects, profiling panel, calcein-AM fluorescence, 48 h, basal (AID 1165);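 further: viability of MM1S multiple myeloma cells under basal unstimulated conditions; test concentration not given here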
- details: higher = more signal
Label rule, in plain words: z-score of -0.1 and up is 1, under -0.1 is 0.

Check out these entries, answers already filled in.
In [3]: df
Out[3]:
                                   compound  category
0  CO[C@H]1O[C@H](CO)[C@@H](OC(=O)Nc2ccccc2)[C@H](OC(=O)Nc2ccccc2)[C@@H]1OC(=O)Nc1ccccc1         0
1  COc1cc(NN2C(C(O)c3ccco3)C=CC3C(=O)N(c4ccccc4)C(=O)C32)cc(OC)c1OC (configuration not stated)         1
2  COc1ccc(-c2cc3c(c(-c4ccc(Oc5ccccc5)cc4)n2)[Si](C(C)C)(C(C)C)OC3)cn1         0
3  NC(=O)NCC#Cc1ccc2c(c1)[C@]1(C(=O)N2)[C@H](c2ccc(O)cc2)N2[C@H](c3ccccc3)[C@H](c3ccccc3)OC(=O)[C@H]2[C@@H]1C(=O)O         1
4  NC(=O)N1C(=O)C2C(C1=O)C1C=C(c3ccc(CO)cc3)C2C(c2cccs2)N1Cc1cccc(OC(F)(F)F)c1 (configuration not stated)         0
5  CC(C)NC(=O)[C@@]1(C)c2ccccc2C(=O)N(Cc2cc(C(F)(F)F)cc(C(F)(F)F)c2)[C@H]1c1ccc(CO)cc1         0

Now turn to the next compound.
Ask: Evaluate COC(=O)[C@@]1(Cc2ccc(OC)cc2)[C@H]2c3cc(C(=O)N(C)C)n(Cc4ccccn4)c3C[C@H]2CN1C(=O)c1ccccc1 : z-score at minimum -0.1?
Result: 0
